Assay: activity coefficient (dimensionless); of the first substance listed, at infinite dilution; xn = mol fraction of the nth substance listed
Details: 348.15 K; 101 kPa; Liquid; Chromatography; x1 = 0
Observed property: activity coefficient

Molecule: CCCCCC [hexane] + CCCC[N+]1(C)CCOCC1.N#C[C-](C#N)C#N
Recorded result: 43.2

Molecule: C#CCCCC [1-hexyne] + CCCC[N+]1(C)CCOCC1.N#C[C-](C#N)C#N
Recorded result: 5.54

Molecule: CCC(=O)CC [pentan-3-one] + CCCC[N+]1(C)CCOCC1.N#C[C-](C#N)C#N
Recorded result: 1.49

Molecule: C1=CCCCC1 [cyclohexene] + CCCC[N+]1(C)CCOCC1.N#C[C-](C#N)C#N
Recorded result: 8.46

Molecule: CCC(C)O (stereo unspecified) [butan-2-ol] + CCCC[N+]1(C)CCOCC1.N#C[C-](C#N)C#N
Recorded result: 1.71

Molecule: Cc1ccc(C)cc1 [1,4-dimethylbenzene] + CCCC[N+]1(C)CCOCC1.N#C[C-](C#N)C#N
Recorded result: 3.57

Molecule: CCCCO [butan-1-ol] + CCCC[N+]1(C)CCOCC1.N#C[C-](C#N)C#N
Recorded result: 1.79

Molecule: CC(C)CC(C)(C)C [2,2,4-trimethylpentane] + CCCC[N+]1(C)CCOCC1.N#C[C-](C#N)C#N
Recorded result: 76.9

Molecule: CCCO [propan-1-ol] + CCCC[N+]1(C)CCOCC1.N#C[C-](C#N)C#N
Recorded result: 1.35

Molecule: C#CCCCCCC [1-octyne] + CCCC[N+]1(C)CCOCC1.N#C[C-](C#N)C#N
Recorded result: 12.2

Molecule: CCc1ccccc1 [ethylbenzene] + CCCC[N+]1(C)CCOCC1.N#C[C-](C#N)C#N
Recorded result: 3.75

Molecule: CC(C)=O [acetone] + CCCC[N+]1(C)CCOCC1.N#C[C-](C#N)C#N
Recorded result: 0.774

Molecule: C1COCCO1 [1,4-dioxane] + CCCC[N+]1(C)CCOCC1.N#C[C-](C#N)C#N
Recorded result: 0.798

Molecule: CCC(C)(C)C [2,2-dimethylbutane] + CCCC[N+]1(C)CCOCC1.N#C[C-](C#N)C#N
Recorded result: 40.9

Molecule: CCOC(C)(C)C [2-ethoxy-2-methylpropane] + CCCC[N+]1(C)CCOCC1.N#C[C-](C#N)C#N
Recorded result: 15.3

Molecule: CC#N [acetonitrile] + CCCC[N+]1(C)CCOCC1.N#C[C-](C#N)C#N
Recorded result: 0.624
